Exercise: for every item that follows, state its recorded Remaining (%).
- Measurement notes: Stability of the analytes in rat plasma under different storage conditions (QC samples)
- Assay type: in vitro ADME
- Measurement context: rat plasma, freeze–thaw cycles (three), medium QC concentration, n = 3
Your reply should be a number followed by the unit it is expressed in.

// query Tell us which Remaining (%) value is on record for COc1ccc(-c2coc3cc(O[C@@H]4O[C@H](CO)[C@@H](O)[C@H](O)[C@H]4O)ccc3c2=O)cc1O [Calycosin-7-glucoside, calycosin-7-glucoside]
// result 107.3%

// query Tell us which Remaining (%) value is on record for COCC12CCC(OC)C34C5CC6(O)C(OC)C(O)C(O)(C5C6OC(=O)c5ccccc5)C(C(OC)C13)C4N(C)C2 (centres unmarked)
// result 92.7%

// query Tell us which Remaining (%) value is on record for O=C(/C=C/c1ccc(O)cc1)c1ccc(O)cc1O
// result 107.0%

// query Tell us which Remaining (%) value is on record for COc1cc2c(cc1OC)[C@@H]1Cc3ccc(OC)c(OC)c3CN1CC2 [Tetrahydropalmatine, tetrahydropalmatine]
// result 107.4%

// query Tell us which Remaining (%) value is on record for C[C@@]12C[C@@]3(O)O[C@@H](O1)[C@]1(COC(=O)c4ccccc4)[C@H]3C[C@@]12O[C@@H]1O[C@H](CO)[C@@H](O)[C@H](O)[C@H]1O
// result 106.4%

----------
- Measurement notes: Stability of the analytes in rat plasma under different storage conditions (QC samples)
- Format: in vitro ADME
- Measurement context: rat, extracted plasma QC samples in auto-sampler, 4 °C for 24 h, medium QC concentration, n = 3
Result type: remaining at 24 h (%)
Expressed in %, but write only the number.

// query Tell us which remaining at 24 h value is on record for COc1ccc(-c2coc3cc(O[C@@H]4O[C@H](CO)[C@@H](O)[C@H](O)[C@H]4O)ccc3c2=O)cc1O [Calycosin-7-glucoside, calycosin-7-glucoside]
// result 104

----------
- Measurement notes: Pharmacokinetic study in rats after single oral administration of GJK (UPLC-MS/MS of plasma)
- Format: in vivo, Sprague–Dawley rats
- Measurement context: rat plasma, single oral GJK 24 g/kg, n = 6, median (minimum, maximum)
Result type: Tmax (time to reach peak concentration)

// query Tell us which Tmax (time to reach peak concentration) value is on record for COc1cc2c(cc1OC)[C@@H]1Cc3ccc(OC)c(OC)c3CN1CC2 [Tetrahydropalmatine, tetrahydropalmatine]
// result 180 (180, 180) min

// query Tell us which Tmax (time to reach peak concentration) value is on record for COc1ccc(-c2coc3cc(O[C@@H]4O[C@H](CO)[C@@H](O)[C@H](O)[C@H]4O)ccc3c2=O)cc1O [Calycosin-7-glucoside, calycosin-7-glucoside]
// result 45 (45, 60) min

// query Tell us which Tmax (time to reach peak concentration) value is on record for COc1ccc(-c2coc3cc(O)ccc3c2=O)cc1
// result 45 (30, 45) min

// query Tell us which Tmax (time to reach peak concentration) value is on record for COCC12CCC(OC)C34C5CC6(O)C(OC)C(O)C(O)(C5C6OC(=O)c5ccccc5)C(C(OC)C13)C4N(C)C2 (stereo not shown)
// result 30 (30, 45) min

----------
- Measurement notes: Pharmacokinetic study in rats after single oral administration of GJK (UPLC-MS/MS of plasma)
- Assay type: in vivo, Sprague–Dawley rats
- Measurement context: Sprague-Dawley, in vivo; rat plasma, single oral GJK 24 g/kg, n = 6, mean ± S.D., non-compartmental; read-out: T1/2z (terminal elimination half-life)
- Procedure: Chromatographic analyses were performed using an Agilent 1290 series UPLC system (Agilent Technologies, Santa Clara, CA, USA) equipped with a binary pump, an online degasser, an auto plate sampler, and a thermostatically controlled column compartment. The determination was carried out at 30 °C on a Waters Acquity UPLC C18 column (100 mm × 2.1 mm, […], Waters, Milford, MA, USA). […]
Result type: half-life (h)
Expressed in h, but write only the number.

// query Tell us which half-life value is on record for O=C(/C=C/c1ccc(O)cc1)c1ccc(O)cc1O [Isoliquiritigenin, isoliquiritigenin]
// result 4.88

// query Tell us which half-life value is on record for COc1cc2c(cc1OC)[C@@H]1Cc3ccc(OC)c(OC)c3CN1CC2 [Tetrahydropalmatine, tetrahydropalmatine]
// result 5.17

// query Tell us which half-life value is on record for C[C@@]12C[C@@]3(O)O[C@@H](O1)[C@]1(COC(=O)c4ccccc4)[C@H]3C[C@@]12O[C@@H]1O[C@H](CO)[C@@H](O)[C@H](O)[C@H]1O [Paeoniflorin, paeoniflorin]
// result 3.5

// query Tell us which half-life value is on record for COCC12CCC(OC)C34C5CC6(O)C(OC)C(O)C(O)(C5C6OC(=O)c5ccccc5)C(C(OC)C13)C4N(C)C2 (stereo not shown) [Benzoylhypaconine, benzoylhypaconine]
// result 6.37

The values you see were collected from paper PMC6272869.
